Test: Pharmacokinetics in mice, intravenous administration
Assay type: in vivo, male C57/BL6 mice
Conditions: male, C57/BL6, iv; i.v. 10 mg/kg, mouse plasma
Label satisfied when half-life is strictly below 1 h; otherwise label not satisfied.

* CO[C@H]1O[C@@H]2O[C@@]3(C)CC[C@H]4[C@H](C)CC[C@@H]([C@H]1C)[C@@]24OO3 | not satisfied

input: half-life under 1 h? Item: C[C@H]1[C@H](N2CCSCC2)O[C@@H]2O[C@@]3(C)CC[C@H]4[C@H](C)CC[C@@H]1[C@@]24OO3 [Artemiside 5, artemiside]
output: not satisfied

input: half-life under 1 h? Item: C[C@H]1[C@H](N2CCS(=O)(=O)CC2)O[C@@H]2O[C@@]3(C)CC[C@H]4[C@H](C)CC[C@@H]1[C@@]24OO3
output: satisfied

input: half-life under 1 h? Item: C[C@@H]1CC[C@H]2[C@@H](C)C(=O)N[C@@H]3O[C@@]4(C)CC[C@@H]1[C@]32OO4
output: not satisfied

input: half-life under 1 h? Item: C[C@H]1[C@H](N2CCN(C(=O)Nc3ccc(F)cc3)CC2)O[C@@H]2O[C@@]3(C)CC[C@H]4[C@H](C)CC[C@@H]1[C@@]24OO3
output: not satisfied

input: half-life under 1 h? Item: C[C@H]1[C@H](NS(N)(=O)=O)O[C@@H]2O[C@@]3(C)CC[C@H]4[C@H](C)CC[C@@H]1[C@@]24OO3 [Sulfamide 7]
output: satisfied
